pIC50: −log10 of the molar value.
List of pIC50 tested on human leukocyte elastase (HLE) (Homo sapiens).
Sequence (P08246 30-267): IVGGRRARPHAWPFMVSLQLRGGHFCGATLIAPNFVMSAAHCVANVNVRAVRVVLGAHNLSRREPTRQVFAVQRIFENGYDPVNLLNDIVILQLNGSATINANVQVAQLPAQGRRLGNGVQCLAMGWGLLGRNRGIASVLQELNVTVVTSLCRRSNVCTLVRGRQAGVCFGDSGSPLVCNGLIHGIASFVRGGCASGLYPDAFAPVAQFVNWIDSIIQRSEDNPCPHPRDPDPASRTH
attribute measured: pIC50

molecule="CO[C@H]1C(=O)N2C(C(=O)OC(C)(C)C)=C(COC(C)=O)/C(=C\\c3ccccc3F)S(=O)(=O)[C@H]12 [drawing 22]" readout_number=8.22
molecule="CO[C@H]1C(=O)N2C(C(=O)OC(C)(C)C)=C(COC(C)=O)/C(=C\\c3ccsc3)S(=O)(=O)[C@H]12 [drawing 29]" readout_number=8.19
molecule=CO[C@H]1C(=O)N2C(C(=O)OC(C)(C)C)=C(COC(C)=O)/C(=C/c3cn(C)nn3)S(=O)(=O)[C@H]12 readout_number=8.11
molecule="CO[C@H]1C(=O)N2C(C(=O)OC(C)(C)C)=C(COC(C)=O)/C(=C\\c3ccco3)S(=O)(=O)[C@H]12 [drawing 25]" readout_number=7.66
